Parameter Folding rate kf: see the listing below.
- assay method text: Constant-force (CF) single-molecule optical tweezers folding assay of guanine-aptamer RNAs in guanine buffer
- Assay type: physicochemical
- protocol conditions: transition C′B (L2-L3 folding); F 8.5 pN; 3 mM Mg^2+, 200 nM G
parameter measured: Folding rate kf (s⁻¹)

{"columns": ["molecule", "experimental value"],
 "data": [
  ["m8: m8 mutant guanine sensing aptamer RNA (SEQ ID NO: 9); A19G and U77C in the P1 hairpin (nucleic acid, RNA, backbone and methylation of C not given here, A19G and U77C in the P1 hairpin) CACUCGUAUAAUCGCGUGGAUAUGGCACGCAAGUUUCUACCGGGCACCGUAAAUGUCCGACUACGGGUG", 1.4],
  ["m6: m6 mutant guanine sensing aptamer RNA (SEQ ID NO: 7); U67A, shorter P3 hairpin and larger L3 loop (nucleic acid, RNA, backbone and methylation of C not given here, U67A, shorter P3 hairpin and larger L3 loop) CACUCAUAUAAUCGCGUGGAUAUGGCACGCAAGUUUCUACCGGGCACCGUAAAAGUCCGACUAUGGGUG", 7.5],
  ["m4: m4 mutant guanine sensing aptamer RNA (SEQ ID NO: 5); A59G/U67C in the P3 hairpin (nucleic acid, RNA, backbone and methylation of C not given here, A59G/U67C in the P3 hairpin) CACUCAUAUAAUCGCGUGGAUAUGGCACGCAAGUUUCUACCGGGCGCCGUAAACGUCCGACUAUGGGUG", 0.22],
  ["wt: 69-nucleotide full-length wild-type guanine sensing aptamer RNA sequence from xpt-pbuX operon in B. subtilis (SEQ ID NO: 1) (nucleic acid, RNA, backbone and methylation of C not given here) CACUCAUAUAAUCGCGUGGAUAUGGCACGCAAGUUUCUACCGGGCACCGUAAAUGUCCGACUAUGGGUG", 0.9]
]}
